Assignment: determine reported %Inh for the given compounds.
system: RSK1(Kin.Dom.2-C-terminal); construct: gene RPS6KA1; conditions: concentration: 1 μM,replicates: in singlicate; n = 1;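 note: KINOMEscan kinase panel screen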
Report the value in % with no unit label.

Briefly, %Inh measured for Cn1cc(-c2cccc3c(N)c(C(N)=O)nnc23)cn1 : 0

Briefly, %Inh measured for CC(C)S(=O)(=O)N1CCN(Cc2ccc3c(c2)nc(NC(=O)c2ccsc2)n3C[C@H](O)c2ccccc2)CC1 : 0

Briefly, %Inh measured for Nc1nccc(-c2ccc3c(N)n[nH]c3c2)n1 : 32

Briefly, %Inh measured for C[C@@H]1CNc2c(sc3ccc4nc(-c5ccncc5)ccc4c23)C(=O)N1 : 0

Briefly, %Inh measured for O=C(NOCC1CC1)c1cc(Br)c(F)c(F)c1Nc1ccc(I)cc1Cl : 38

Briefly, %Inh measured for COC(=O)c1cccc(NC(=O)NC2CCN(c3ccnc(NCc4ccc(F)cc4)n3)CC2)c1 : 0

Briefly, %Inh measured for Cc1cccc2c(-c3ccncc3)c(-c3ccc(F)cc3)nn12.Cl : 51

Briefly, %Inh measured for CN1CCN(CCCNc2nccc(-c3c(-c4ccc(F)cc4)nn4cc(C(N)=O)ccc34)n2)CC1 : 63

Briefly, %Inh measured for Cn1ccc2ncnc(Oc3ccc(NC(=O)Nc4cncc(C(F)(F)F)c4)c(Cl)c3)c21 : 0

* * *

tested on: RSK3(Kin.Dom.1-N-terminal); construct: gene RPS6KA2; conditions: concentration: 1 μM,replicates: in singlicate; n = 1
valueKind: %Inh (%)
Report the value in % with no unit label.

Briefly, %Inh measured for Cc1ccn2nc(-c3ccc(F)cc3)c(-c3ccncc3)c2c1.Cl : 0

Briefly, %Inh measured for CS(=O)c1ccc(-c2coc3ccc(-c4n[nH]c(=O)o4)cc23)cc1 (centres unmarked) : 9

Briefly, %Inh measured for CC(=O)c1c(-c2ccncc2)[nH]c(-c2ccncc2)c1C : 0

Briefly, %Inh measured for CS(=O)(=O)c1cccc(CNc2nc(Nc3ccc4c(c3)[C@@H]3C[C@@H]4CNC3=O)ncc2C(F)(F)F)c1 : 85

Briefly, %Inh measured for O=C(Nc1ccc(Oc2ccc3nc(NC(=O)C4CC4)cn3n2)c(F)c1)c1cccn(-c2ccccc2)c1=O : 0

Briefly, %Inh measured for COC(=O)Nc1nc2cc(Oc3ccc(NC(=O)Nc4cc(C(F)(F)F)ccc4Cl)cc3)ccc2[nH]1.Cl : 21

Briefly, %Inh measured for Cn1ccc2ncnc(Oc3ccc(NC(=O)Nc4cncc(C(F)(F)F)c4)c(Cl)c3)c21 : 9

Briefly, %Inh measured for CC(=O)Nc1ccc(-c2cc3ncnc(SCC(=O)O)c3s2)cc1 : 14

* * *

Assignment: determine reported %Inh for the given compounds.
test system: CSNK1A1L; settings: concentration: 1 μM,replicates: in singlicate; n = 1
The answer consists of two parts: a number and, after it, its unit.

Briefly, %Inh measured for CCNCC(Cc1ccccc1)NC(=O)c1cc(Br)c(-c2ccnc3[nH]ccc23)s1.Cl.Cl (centres unmarked) : 6%

Briefly, %Inh measured for Cc1ccc2c(-c3ccnc(Nc4ccc(C(F)(F)F)cc4)n3)cnn2n1 : 0%

Briefly, %Inh measured for O=C(Nc1cccc(Oc2ccc3nccn3n2)c1)Nc1cccc(C(F)(F)F)c1 : 3%

Briefly, %Inh measured for Nc1nccc(-c2ccc3c(N)n[nH]c3c2)n1 : 5%

Briefly, %Inh measured for CC(C)c1nc(-c2cccc(NS(=O)(=O)c3ccccc3)c2)c(-c2ccnc(Nc3ccc4c(c3)CN(C)CC4)n2)s1 : 88%

Briefly, %Inh measured for CS(=O)(=O)Nc1ccc(-c2ccnc3[nH]ccc23)cc1 : 21%

Briefly, %Inh measured for COC(=O)c1cccc(NC(=O)NC2CCN(c3ccnc(NCc4ccc(F)cc4)n3)CC2)c1 : 23%

Briefly, %Inh measured for C[C@@H](Oc1cc(-n2cnc3cc(-c4cnn(C)c4)ccc32)sc1C(N)=O)c1ccccc1Cl : 1%
